target-system: CDK2-cyclin A (Homo sapiens, UniProt P24941)
experiment: Kinase assay (radioactive phosphate incorporation), CDK2-cyclin A
Type: biochemical
condition-parameters: read-out: Kinase Inhibition pIC50 CDK2-cyclin A (converted)
readout: IC50 (nM)

Please review the following examples before continuing.
Cc1nc(N)sc1-c1ccnc(Nc2ccc(N3CCNCC3)cc2)n1	2000
Cc1nc(C)c(-c2ccnc(Nc3cccc(S(C)(=O)=O)c3)n2)s1	1000
CNc1nc(C)c(-c2ccnc(Nc3cccc(S(=O)(=O)NC(C)=O)c3)n2)s1	3160
CCNc1nc(C)c(-c2ccnc(Nc3ccc(S(C)(=O)=O)cc3)n2)s1	39.8
CCNc1nc(C)c(-c2ccnc(Nc3cccc(CNS(C)(=O)=O)c3)n2)s1	200
CCNc1nc(C)c(-c2ccnc(Nc3ccc(S(=O)(=O)NCCOC)cc3)n2)s1	12.6
Cc1nc(C)c(-c2ccnc(Nc3cccc(CNC(=O)c4ccccc4)c3)n2)s1	1000

(P) Cc1nc(C)c(-c2ccnc(Nc3cccc(N4CCNCC4)c3)n2)s1
(Q) CC(=O)NS(=O)(=O)c1cccc(Nc2nccc(-c3sc(N)nc3C)n2)c1
Lookup: Which value of IC50 is numerically greater: that of P or that of Q ? Identify your pick by its label.
Found: P

Attribution: patent US20090137572A1
